# MEASUREMENT TARGET: PTP-PEST (Homo sapiens)
# ASSAY: Counter-screen phosphatase assay PTP-PEST
# Format: biochemical
# MEASUREMENT CONDITIONS: Table II; read-out: PTP-PEST IC50

# MOLECULE, IC50
data = [
    ("COc1ccc(-n2ncc3c(SCC(=O)N4c5ccccc5CC4C)ncnc32)cc1 (racemic) [B11P32]", "> 40 µM"),
]

---

# MEASUREMENT TARGET: PTP-PEST (Homo sapiens, UniProt Q05209)
# Sequence (Q05209 2-323, species assumed): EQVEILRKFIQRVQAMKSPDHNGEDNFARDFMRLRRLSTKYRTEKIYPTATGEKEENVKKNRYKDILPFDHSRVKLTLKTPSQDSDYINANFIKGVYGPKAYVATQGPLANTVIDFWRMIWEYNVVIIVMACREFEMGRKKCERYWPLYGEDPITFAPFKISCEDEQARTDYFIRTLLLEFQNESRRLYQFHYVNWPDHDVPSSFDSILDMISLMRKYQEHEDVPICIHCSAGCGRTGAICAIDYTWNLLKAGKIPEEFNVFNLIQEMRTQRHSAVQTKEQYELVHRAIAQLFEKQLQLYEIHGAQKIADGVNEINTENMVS
# ASSAY: Counter-screen phosphatase assay PTP-PEST
# Format: biochemical
# MEASUREMENT CONDITIONS: read-out: PEST IC50
OUTCOME MEASURE: IC50 (µM)

# MOL, MEASUREMENT TARGET, TEST VALUE
measured = [
    ("CCC(C)(C)n1nnnc1[C@@H](c1cc2ccc(OC)cc2[nH]c1=O)N1CCCC2(CCCCC2)C1", "PTP-PEST (Homo sapiens, UniProt Q05209)", 29.9),
    ("Cc1ccc2[nH]c(=O)c([C@H](c3nnnn3C(C)(C)C)N3CCCC4(CCCCC4)C3)cc2c1", "PTP-PEST (Homo sapiens, UniProt Q05209)", 28.2),
    ("Cc1ccc2[nH]c(=O)c([C@H](c3nnnn3C3CCCC3)N3CCN(c4ccccc4F)CC3)cc2c1", "PTP-PEST (Homo sapiens, UniProt Q05209)", 23.2),
    ("Cc1ccc2[nH]c(=O)c([C@H](c3nnnn3C3CCCC3)N3CCN(c4ccc(F)cc4)CC3)cc2c1", "PTP-PEST (Homo sapiens, UniProt Q05209)", 38),
]
